Recorded measurements of TGI, one per entry
System: RPMI-8226 leukemia
runDescription: NCI tumour cell line growth inhibition, 48 h

Example cases with answers are listed next.
[[record]]
compound = "S=C(N1CCN(c2cccc(Cl)c2)CC1)N1CCN(c2cccc(Cl)c2)CC1"
tgt = "RPMI-8226 leukemia"
measurementlabel = "TGI"
observed = "> 100 µM"

[[record]]
compound = "COC(=O)/C=C(\\S/C=C(/c1ccccc1)N1CCn2c(C(=O)c3ccccc3)c(C(=O)OC)c(C(=O)OC)c21)C(=O)OC"
tgt = "RPMI-8226 leukemia"
measurementlabel = "TGI"
observed = "7.49 µM"


Given the compound `COP(=O)(OC)/C(=C/c1cn(C(c2ccccc2)(c2ccccc2)c2ccccc2)cn1)NC=O` , what is its reported TGI? > 100 µM

What do you have for `Cc1nc2[nH]ncn2c(=O)c1CCO` ? > 10 µM

Queued: `Cc1cc(O)c(/C=N/C(=S)Nc2ccccc2)c(=O)o1` > 100 µM

Repeat for the following compound: O=C1c2ccccc2C(=O)c2c(NCC3CO3)ccc(NCC3CO3)c21 (stereo not given) 33.3 µM

Now the same for `C#COc1cccc(Nc2ncnc3cc(NC(=O)[C@H](C)Cl)ccc23)c1` > 62.5 µM

Would you kindly repeat that for COc1ccc(N2C(=O)C3c4[nH]c5ccc(F)cc5c4C4CCC(C(C)(C)C)CC4C3C2=O)cc1 (stereo not given) ? > 10 µM

Param item: `COc1ccc(/C=C\c2cc(OC)c(OC)c(OC)c2)cc1OCC(=O)Nc1ccc2nc(C)sc2c1` 4.69 µM

Try the compound `O=C(C/C(CCC(=O)N(Cc1ccccc1)Cc1ccccc1)=N/Nc1ccc([N+](=O)[O-])cc1[N+](=O)[O-])c1ccccc1` > 100 µM

Similarly, `NNC(=O)c1ccc(OCc2nc3ccccc3[nH]2)cc1` ? > 100 µM

Now the same for `CCOC(=O)C(O)(C(=O)OCC)c1cc(C(C)(C)C)c(O)c(C(C)(C)C)c1` 91.3 µM

Try the compound `O=C(NNS(=O)(=O)c1ccccc1)c1cccnc1` > 100 µM

====

# TGI per record follows
Tested on: NCI-H522 lung
runDescription: NCI tumour cell line growth inhibition, 48 h

[[record]]
compound = "O=S(=O)(O)c1ccc2c(N=Nc3ccc(Cl)cc3)c(O)ccc2c1"
tgt = "NCI-H522 lung"
observed = "> 100 µM"

[[record]]
compound = "CC[N+](C)(CC)CC(C)(C)C(=O)/C=C/c1ccc(/C=C/C(=O)C(C)(C)C[N+](C)(CC)CC)cc1"
tgt = "NCI-H522 lung"
observed = "> 100 µM"

[[record]]
compound = "CN1C(=O)CC2CCC(=O)N2c2cccnc21 (stereo not drawn)"
tgt = "NCI-H522 lung"
observed = "> 100 µM"

[[record]]
compound = "C#CC1(O)CCC2[C@@H]3CCc4cc(Oc5nc(F)nc(-c6c7ccccc7cn6C)n5)ccc4C3CC[C@@]21C (stereo partly drawn)"
tgt = "NCI-H522 lung"
observed = "> 100 µM"

[[record]]
compound = "COc1cc(C2C3=C(COC3=O)N(CCO)c3cc4c(cc32)OCO4)cc(OC)c1O (stereo not drawn)"
tgt = "NCI-H522 lung"
observed = "0.289 µM"

[[record]]
compound = "CC[P+]1(c2ccccc2)[C@@H](C)CC[C@@H]1C"
tgt = "NCI-H522 lung"
observed = "> 100 µM"

[[record]]
compound = "Cc1cnc(Nc2ccc(N3CCN(C)CC3)cc2)nc1Nc1ccc(Cl)c(NS(=O)(=O)C(C)(C)C)c1"
tgt = "NCI-H522 lung"
observed = "1.6 µM"

[[record]]
compound = "C=CCOC(=O)C1CCC(=O)N1C(=O)C(Cl)Cl (stereo not drawn)"
tgt = "NCI-H522 lung"
observed = "> 100 µM"

[[record]]
compound = "CCOC(=O)Cc1cnc(NC(NC(=O)CC)(C(F)(F)F)C(F)(F)F)s1"
tgt = "NCI-H522 lung"
observed = "> 100 µM"

[[record]]
compound = "O=C(Nc1cccc2ccccc12)c1ccccc1"
tgt = "NCI-H522 lung"
observed = "> 100 µM"


Bench note: what TGI did `COc1cc2ccc1OCc1cccc(n1)COc1ccc(cc1OC)C=NCCNCCNCCN=C2` show? > 100 µM

Consider next the compound `C=C(C)C(=O)O[C@@H]1C/C(C)=C\[C@H](OC(C)=O)C[C@](C)(O)/C=C2/OC(=O)C(COC(C)=O)=C21` in the same way. 0.539 µM

Then this compound: `c1ccc2c(c1)ccn1ccc3c4ccccc4nc-3c21` 1.7 µM

Repeat with `C[C@@H]1COCCN1c1cc(C2([S@@](C)(=N)=O)CC2)nc(-c2ccnc3[nH]ccc23)n1` > 100 µM

Repeat for the following compound: `Cc1cc(Nc2cc(N3CCN(C)CC3)nc(Sc3ccc(NC(=O)C4CC4)cc3)n2)n[nH]1` > 10 µM

Same again, this time with CC1CN=C(c2cccc(-c3nc(-c4cccc(C5=NCC(C)N5)c4)nc(N(C)C)n3)c2)N1 (stereo not drawn) 2.51 µM

For `Oc1[nH]c2ccccc2c1N=Nc1c(F)c(F)c(F)c(F)c1F` then? 47.7 µM

// query: `CC/C=C/C[C@H](O)[C@H]1C[C@H]2O[C@H](CC(=O)OC)C[C@H]2O1` > 100 µM

What do we get for `N#Cc1c(N)nc(NCc2ccccc2)c(C#N)c1-c1ccc(Cl)cc1Cl` ? > 100 µM

What do we get for COc1c2c(cc3c1C1(O)Cc4ccc5c(c4C[N+]1(C)CC3)OCO5)OCO2 (stereo not drawn) ? > 100 µM

Please answer likewise for `CC(=O)N(O)Cc1ccccc1` > 100 µM

Check `Cc1cccc(NC(=O)/C=C/c2ccc([N+](=O)[O-])cc2)c1` too. > 53.9 µM

Same read-out for `Cc1nc2sccn2c1C(=O)NC(=O)Nc1ccc(Cl)cc1` ? > 100 µM

Next compound up: `CN(C)c1ccc(C(c2ccc(Cl)cc2)c2ccc(N(C)C)cc2)cc1` > 100 µM

Also `COc1ccc(/C=C\c2cc(OC)c(OC)c(OC)c2)cc1OCC(=O)Nc1ccc2nc(C)sc2c1` ? 7.06 µM

// same read-out, input: C=CCc1cc(C(Cc2ccccc2)NC(C)C)cc(OCc2ccccc2)c1OCc1ccccc1 (stereo not drawn) 28.8 µM

Could you do the same for `CO[C@@H]1C[C@H](OC(N)=O)[C@@H]2C=C[C@@H]3/C=C(C)/C=C/[C@@H](C)[C@H](/C(C)=C/[C@@H](C)NC(C)=O)OC(=O)/C=C/C=C(C)\C=C\[C@]3(C)[C@@H]2C1` , please? 0.103 µM

Queued: `COc1ccc2c(c1)c(=O)c1c(NCCN(C)C)ccc3nnn2c31` 15.8 µM

Entry `CC1(C)CC(=O)c2c(nc3c(ccc4ccccc43)c2-c2ccc(NC(=O)CCCCC(=O)Nc3ccc(-c4c5c(nc6c4ccc4ccccc46)CC(C)(C)CC5=O)cc3)cc2)C1` please > 100 µM

And then `CC(C)(C)OC(=O)c1cccnc1/C=N/O` , what is it? > 100 µM

Check `COC(=O)/C=c1\s/c(=C\C(=O)OC)c2ccccc12` too. > 100 µM

Try this compound too: `O=C(CC(=O)c1cccc(Cl)c1)c1cccc(Cl)c1` > 100 µM

====

Tested on: HCT-15 colon
runDescription: NCI tumour cell line growth inhibition, 48 h; in the data active = GI50 below about 0.43 µM; inactive = the rest
Give one outcome, nothing more. List: active, inactive

[[record]]
compound = "C[C@@H]1COCCN1c1cc(C2([S@@](C)(=N)=O)CC2)nc(-c2ccnc3[nH]ccc23)n1"
tgt = "HCT-15 colon"
classlabel = "inactive"

[[record]]
compound = "C#COc1cccc(Nc2ncnc3cc(NC(=O)[C@H](C)Cl)ccc23)c1"
tgt = "HCT-15 colon"
classlabel = "inactive"

[[record]]
compound = "CCCCCCCC(=O)OCC(=O)[C@]1(O)Cc2c(O)c3c(c(O)c2[C@@H](OC2CC(N)C(O)C(C)O2)C1)C(=O)c1c(OC)cccc1C3=O (some centres undefined)"
tgt = "HCT-15 colon"
classlabel = "inactive"

[[record]]
compound = "O=C(Nc1cc(Oc2cc(F)c(NC(=O)C3(C(=O)Nc4ccc(F)cc4)CC3)cc2F)ccn1)C1CC1"
tgt = "HCT-15 colon"
classlabel = "inactive"

[[record]]
compound = "NC(=Nc1ccc(N)cc1)C(N)=Nc1ccc(N)cc1"
tgt = "HCT-15 colon"
classlabel = "inactive"

[[record]]
compound = "COc1ccc(C(CC(=O)c2ccccc2)C(C(=O)c2ccccc2)C(c2ccc(OC)cc2)C2C(=O)NC(=S)NC2=O)cc1 (centres undefined)"
tgt = "HCT-15 colon"
classlabel = "inactive"


For `ClCc1cccc(CSc2ncnc3c2ncn3Cc2cccc(CCl)c2)c1` , what call appears in the results of this test? inactive

Next record, please: `O=c1cc(-c2ccccc2)oc2cc(OC/C(=N/O)c3ccc(F)cc3)ccc12` inactive

Param item: `CN1CCN(Cc2ccc3c(NNC(=O)c4ccccc4)nc4cc(F)ccc4n23)CC1` active
